# experimental.protocol: In vivo pharmacokinetics and brain distribution, single i.v. or p.o. dose
# Design: species or system male C57BL/6 mice
# condition.details: male, C57BL/6, mouse, plasma, po; mice, at 10 mg/kg; read-out: Oral Bioavailablility
# Protocol: The pharmacokinetics and brain distribution of the compounds described herein was determined in male C57BL/6 mice following single intravenous or oral dose administration. A group of 54 male mice were divided into two groups of 27 mice. […] All samples were processed for analysis by protein precipitation using acetonitrile and analyzed with fit-for-purpose LC/MS/MS method (LLOQ: 1.01 ng/mL for plasma and brain). […]
measure: bioavailability (%)

CCCC[C@@H](Cc1c[nH]c2ccccc12)NC(=O)c1cnc(N2CCN(C)CC2)s1 :: 57
CCCCC(Cc1c[nH]c2ccccc12)NC(=O)c1cnc(N2CCN(C)CC2)s1 (stereo not shown) :: 53
CCCNC(=O)NC(Cc1c[nH]c2ccccc12)NC(=O)c1cnc(N2CCN(C)CC2)s1 (stereo not shown) [Comp. B, reference compound] :: 14
CCCCC(Cc1c[nH]c2ccc(F)cc12)NC(=O)c1cnc(CCN2CCOCC2)s1 (stereo not shown) :: 13
CCCCC(Cc1c[nH]c2ccccc12)NC(=O)c1cnc(CCN2CCN(C)CC2)s1 (stereo not shown) :: 79
CCCC[C@H](Cc1c[nH]c2ccccc12)NC(=O)c1cnc(N2CCN(C)CC2)s1 :: 14
CN1CCN(CCc2ncc(C(=O)NCCc3c[nH]c4ccccc34)s2)CC1 :: 100
